# assay.overview: In vivo pharmacokinetic studies of dihydropyridines given orally with water, grapefruit juice or orange juice (plasma concentration, GC analysis)
# Set-up: species or system human (healthy subjects, hypertensive patients)
# reported.conditions: human, plasma, po, felodipine ER tablets, healthy subjects, n = 9, water; mean
quantity: Cmax (nM)
Field: numeric (nM). Do not append units.

Ask: # input molecule: CCOC(=O)C1=C(C)NC(C)=C(C(=O)OC)C1c1cccc(Cl)c1Cl (stereo not shown) [Felodipine] ; wanted: its Cmax
Result: 3.4

* * *

# assay.overview: In vivo pharmacokinetic studies of dihydropyridines given orally with water, grapefruit juice or orange juice (plasma concentration, GC analysis)
# Design: species or system human (healthy subjects, hypertensive patients)
# reported.conditions: human, plasma, po, felodipine ER tablets, healthy subjects, n = 9, grapefruit juice; mean
quantity: Cmax

Ask: # input compound: CCOC(=O)C1=C(C)NC(C)=C(C(=O)OC)C1c1cccc(Cl)c1Cl (stereo not shown) ; wanted: its Cmax
Result: 8.9 nM
